Tested on: Opioid receptors; mu & delta
Experiment: Selectivity ratio expressed as Ki of delta opioid receptor to that of mu opioid receptor.
Assay type: protein assay
Conditions: Cavia porcellus
assay endpoint: Selectivity

{"record smiles": "Nc1ccc2c(c1)[C@@]13CCCC[C@H]1[C@@H](C2)N(CC1CCC1)CC3", "assay endpoint": "Selectivity", "value prefix": "=", "value reported": 49}
{"record smiles": "CN1CC[C@]23CCCC[C@H]2[C@H]1Cc1ccc(N)cc13", "assay endpoint": "Selectivity", "value prefix": "=", "value reported": 190}
{"record smiles": "CN1CC[C@]23CCCC[C@H]2[C@H]1C(=O)c1ccc(O)cc13", "assay endpoint": "Selectivity", "value prefix": "=", "value reported": 57}
{"record smiles": "C#CCOc1ccc2c(c1)[C@@]13CCCC[C@H]1[C@@H](C2=O)N(CC#C)CC3", "assay endpoint": "Selectivity", "value prefix": ">", "value reported": 14}
{"record smiles": "Nc1ccc2c(c1)[C@@]13CCCC[C@H]1[C@@H](C2=O)N(CC1CCC1)CC3", "assay endpoint": "Selectivity", "value prefix": "=", "value reported": 26}
{"record smiles": "CN1CC[C@]23CCCC[C@H]2[C@H]1Cc1ccc(C#N)cc13", "assay endpoint": "Selectivity", "value prefix": ">", "value reported": 500}
{"record smiles": "O=C(Nc1ccc2c(c1)[C@@]13CCCC[C@H]1[C@@H](C2=O)N(CC1CCC1)CC3)c1ccccc1", "assay endpoint": "Selectivity", "value prefix": "=", "value reported": 86}
{"record smiles": "O=C1c2ccc(-c3nn[nH]n3)cc2[C@@]23CCCC[C@H]2[C@@H]1N(CC1CCC1)CC3", "assay endpoint": "Selectivity", "value prefix": "=", "value reported": 7.8}

This collection of values is drawn from ChEMBL document CHEMBL1148293.
